Molecular target: NF-κB (p50-p65) binding to DNA (Homo sapiens, UniProt Q04206)
Construct: endogenous in cells; host or cells: KBM-5 cells, TNF-treated, nuclear extract
Sequence (Q04206 whole entry): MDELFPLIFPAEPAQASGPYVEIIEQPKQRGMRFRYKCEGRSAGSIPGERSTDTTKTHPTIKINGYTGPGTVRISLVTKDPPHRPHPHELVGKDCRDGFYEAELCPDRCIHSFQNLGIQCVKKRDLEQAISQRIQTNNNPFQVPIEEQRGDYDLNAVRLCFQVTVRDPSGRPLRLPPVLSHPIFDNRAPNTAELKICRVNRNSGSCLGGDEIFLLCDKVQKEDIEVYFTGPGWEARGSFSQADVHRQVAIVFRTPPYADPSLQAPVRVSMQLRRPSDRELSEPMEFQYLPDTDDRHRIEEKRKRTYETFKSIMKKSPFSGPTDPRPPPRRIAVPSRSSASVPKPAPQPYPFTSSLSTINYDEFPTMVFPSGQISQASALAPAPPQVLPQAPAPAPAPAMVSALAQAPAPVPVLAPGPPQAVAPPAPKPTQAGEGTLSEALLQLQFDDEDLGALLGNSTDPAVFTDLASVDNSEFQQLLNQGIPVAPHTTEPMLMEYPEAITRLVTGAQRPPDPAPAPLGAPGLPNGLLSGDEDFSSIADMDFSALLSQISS
Test: EMSA of NF-κB binding to DNA, nuclear extracts of TNF-treated cells incubated with peptides in vitro
Assay type: biochemical
Conditions: nuclear extracts of TNF-treated KBM-5 cells incubated 30 min with peptides (FIG. 2A)
observed-property: inhibition of NF-κB binding to the DNA in vitro

Examples with answers:
substance	observed-measurement
p65-p8: Peptide in which Ser 536 was mutated (NGLLSGDEDFSA; CHAIN p65-P8, mutated peptide derived from the p65 subunit of NF-kB)	did not inhibit
p65-P2: Peptide in which Ser 276 was mutated (QLRRPADRELSE; CHAIN p65-P2, mutated peptide derived from the p65 subunit of NF-kB)	did not inhibit
p65-P7: Peptide in which Ser 529 was mutated (NGLLAGDEDFSS; CHAIN p65-P7, mutated peptide derived from the p65 subunit of NF-kB)	did not inhibit
p65-P5: Peptide in which three amino acid residues were deleted from the N-terminus (RPSDRELSE; CHAIN p65-P5, mutated peptide derived from the p65 subunit of NF-kB)	inactive

Now for the substance whose inhibition of NF-κB binding to the DNA in vitro we want.
Q. I'd like to know its inhibition of NF-κB binding to the DNA in vitro. The substance in question is p65-P4: Peptide in which five amino acid residues were deleted from the C-terminus (QLRRPSD; CHAIN p65-P4, mutated peptide derived from the p65 subunit of NF-kB)
A. inactive
